# ASSAYED_SYSTEM: T1, human Ly6E, N-terminal gD-tagged, stably expressed on PC3 cells (human, UniProt Q16553 21-101)
# T1 construct: GPI-linked protein on cells; also called hu Ly6E; human Ly6E transfected PC3 cells; not shown: N-terminal gD tag of the retroviral vector
# T1 sequence: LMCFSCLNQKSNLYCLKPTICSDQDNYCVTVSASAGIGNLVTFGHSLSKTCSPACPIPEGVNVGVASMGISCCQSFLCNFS
# ASSAY_NOTES: cell-based competitive binding on human Ly6E PC3 cells; competitor mouse 9B12
METRIC: IC50 (nM)
Report as a plain number; the unit nM is understood.

[Q] Quick one: IC50 of humanized 9B12 variant v22 (antibody, V domains shown, IgG. k1 graft + 71 / VH2 graft + 24 + 49 + 73; Residue changes derived) VH: EVQLVESGPALVKPTQTLTLTCTVSGFSLTGYSVNWIRQPPGKALEWLGMIWGDGSTDYNSALKSRLTISKDNSKNQVVLTMTNMDPVDTATYYCARDYYFNYASWFAYWGQGTLVTVSS VL: DIQMTQSPSSLSASVGDRVTITCSASQGISNYLNWYQQKPGKAPKLLIYYTSNLHSGVPSRFSGSGSGTDYTLTISSLQPEDFATYYCQQYSELPWTFGQGTKVEIK ?
[A] 59
